assayed system: recombinant human ALK enzyme (ALK WT) (Homo sapiens, UniProt Q9UM73)
Construct: purchased Carna Biosciences 08-518
Sequence (Q9UM73 1058-1620 limits assumed): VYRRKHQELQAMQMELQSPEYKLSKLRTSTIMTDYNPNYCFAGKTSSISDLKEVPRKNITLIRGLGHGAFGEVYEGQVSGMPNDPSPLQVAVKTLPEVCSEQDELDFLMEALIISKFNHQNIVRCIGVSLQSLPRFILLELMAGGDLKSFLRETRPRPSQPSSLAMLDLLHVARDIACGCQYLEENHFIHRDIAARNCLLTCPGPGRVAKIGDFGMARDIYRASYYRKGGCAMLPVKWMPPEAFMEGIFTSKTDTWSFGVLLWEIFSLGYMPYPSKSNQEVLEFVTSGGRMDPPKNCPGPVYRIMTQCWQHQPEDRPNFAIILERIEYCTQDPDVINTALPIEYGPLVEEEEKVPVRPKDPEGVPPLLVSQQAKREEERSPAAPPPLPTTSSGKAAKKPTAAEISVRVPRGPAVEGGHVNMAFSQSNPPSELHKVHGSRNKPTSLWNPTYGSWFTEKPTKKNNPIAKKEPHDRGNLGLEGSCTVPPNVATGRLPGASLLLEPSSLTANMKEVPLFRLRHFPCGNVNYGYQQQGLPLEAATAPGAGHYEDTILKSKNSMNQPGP
assay protocol: ALK WT cell free enzymatic assay (TR-FRET)
Format: biochemical
assay setup: compound at 100 nM; 30 min pre-incubation; 1 μM ATP
readout name: inhibition at 0.1 µM (%)

{"molecule": "COc1ccc(-c2cnc3[nH]cc(-c4cnn(Cc5cc(F)ccc5F)c4)c3c2)cc1NS(C)(=O)=O", "readout name": "inhibition at 0.1 µM", "obs value": 91}
{"molecule": "C[C@@H](O)CN1CCN(c2ncc(-c3cnc4[nH]cc(-c5cnn(Cc6cccc(F)c6)c5)c4c3)cc2F)CC1", "readout name": "inhibition at 0.1 µM", "obs value": 93}
{"molecule": "COc1cc(-c2cnc3[nH]cc(-c4c(C)nn(Cc5cc(F)cc(F)c5)c4C)c3c2)cnc1N", "readout name": "inhibition at 0.1 µM", "obs value": 96}

a = Fc1cccc(Cn2cc(-c3c[nH]c4ncc(-c5cnc(N6CCNCC6)c(F)c5)cc34)cn2)c1
b = COc1ccc(-c2cnc3[nH]cc(-c4c(C)nn(Cc5cccc(F)c5)c4C)c3c2)c(OC)c1NS(C)(=O)=O
Between a and b , which one shows the smaller inhibition at 0.1 µM number? Use the label to indicate which entry you chose.
b

Hey, just so you know, these numbers are from patent US9353107B2.
